biological target: Apelin receptor (Homo sapiens) (UniProt P35414); test: antagonists of human apelin receptor APJ, primary screen, CHO-K1 cells, beta-arrestin complementation, luminescence (AID 2521); conditions: at 20 µM, active compounds read high;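 also: cells challenged with 10 nM apelin-13 agonist together with compound; plate controls were apelin-13 plus DMSO wells for no effect and DMSO wells lacking apelin-13 for full effect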
Sequence (P35414 whole entry, looked up): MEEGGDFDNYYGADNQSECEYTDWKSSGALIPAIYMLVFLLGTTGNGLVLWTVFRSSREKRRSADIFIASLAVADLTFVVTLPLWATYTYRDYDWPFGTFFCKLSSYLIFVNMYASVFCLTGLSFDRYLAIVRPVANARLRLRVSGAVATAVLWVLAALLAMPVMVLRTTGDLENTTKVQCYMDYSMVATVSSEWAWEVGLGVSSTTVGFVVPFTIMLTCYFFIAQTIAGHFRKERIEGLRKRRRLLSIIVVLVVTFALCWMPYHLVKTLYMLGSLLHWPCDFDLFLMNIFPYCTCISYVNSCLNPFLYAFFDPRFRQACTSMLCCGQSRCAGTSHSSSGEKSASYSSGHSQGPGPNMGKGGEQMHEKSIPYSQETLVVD
Out of some 330,000 compounds screened, about 1,100 (0.33%) were called active. This excerpt belongs to a sample that is enriched for actives.
outcome_measure: inhibition (%)
One number for each entry, in %.

Consider the following illustrative entries.
| molecule | readout_value |
| --- | --- |
| CCC(=O)c1ccc(OC(=O)/C=C/c2cc(OC)c(OC)c(OC)c2)cc1 | 20.9 |
| O=C(Nc1cc(=O)[nH]c2ncnn12)c1ccccc1Cl | 2.3 |
| CC(Oc1ccc(F)cc1)C(=O)Nc1cc(S(=O)(=O)N2CCOCC2)ccc1N1CCN(C)CC1 (stereo unspecified) | 11.7 |
| CC(=O)Nc1ccc(S(=O)(=O)Nc2nc3n(n2)C(c2ccccc2)CC(=O)N3)cc1 (stereo unspecified) | -9.74 |
| C=CCn1c(C(C)NC(=O)CC)nc2ccccc21 (stereo unspecified) | 8.11 |

Each molecule below has a reported value. Please supply its inhibition.
1. COc1ccccc1NC(=O)c1c(Br)cnn1C
2. CC(=O)c1ccc(S(=O)(=O)N(C)CCCC(=O)N(C)Cc2ccccc2F)cc1

Found:
1. -0.0339
2. -6.03

Kindly give each listed record's inhibition.
1. COc1ccc(NC(C)=O)cc1NC(=O)CN1CCN(C2c3ccccc3-c3ccccc32)CC1
2. Cn1cccc1C(=O)OCC(=O)c1ccc(Br)s1
3. COc1cc2c(cc1OC)C(C)N(S(=O)(=O)c1cnc(Cl)c(Cl)c1)CC2 (stereo unspecified)
4. Clc1ccc(Cn2ncc3c(NCc4cccnc4)ncnc32)cc1

Found:
-6.9
6.14
-23.5
-0.393

====

target: Apelin receptor (Homo sapiens); test: antagonists of human apelin receptor APJ, primary screen, CHO-K1 cells, beta-arrestin complementation, luminescence (AID 2521); conditions: at 20 µM, active compounds read high;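 also: cells challenged with 10 nM apelin-13 agonist together with compound; plate controls were apelin-13 plus DMSO wells for no effect and DMSO wells lacking apelin-13 for full effect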
The whole screen tested about 330,000 compounds, of which about 1,100 (0.33%) were called active. Shown is part of a subset that was picked to be rich in actives.
Give measured inhibition for each item. Keep answers brief.
Numbers only, in %.

Please review the entries below; each comes with its answer.
| compound | display_unit | inhibition |
| --- | --- | --- |
| CC(=O)/C(=N\Nc1ccc(Cl)cc1Cl)Sc1cccc2cccnc12 | % | 50.3 |
| Cn1c(=O)c2c(-c3cccc(Br)c3)c(C#N)c(N)nc2n(C)c1=O | % | -4.62 |
| COc1ccc(-n2nc(C(=O)NCC(=O)N3CCC(C(N)=O)CC3)c3ccccc3c2=O)cc1OC | % | -0.314 |
| CC1CC2=C(CC1/C=N/NC(N)=S)C(C)(C)CCC2 (stereo not given) | % | 49.2 |

Give measured inhibition for every item shown.
1. Cc1cccc(N2CCC(NCc3c(C(=O)N4CCCCC4)nc4c(C)cccn34)CC2)c1
2. CSc1cc(C)n(-c2ccccc2C)c(=S)c1C(C)=O
3. O=C(NNc1cc(Cl)ccc1Cl)c1cccnc1Cl
4. Cc1c(NC(=O)CSc2cccc3cccnc23)c(=O)n(-c2ccccc2)n1C
5. CCCCCCNC(=O)CSc1nccn1Cc1ccccc1

Found:
1. -3.54
2. 7.52
3. -13.7
4. 21.8
5. 15.6

The recorded inhibition with Apelin receptor (Homo sapiens) for `C=C(C)C(=O)O[C@H]1C/C(C)=C\C(=O)/C=C(\C)[C@H](O)[C@@H]2OC(=O)C(=C)[C@@H]21` was 13.2
